meta.source: the CheMixHub drug solubility set

test: xn = mol fraction of the nth substance listed, in the solute-free solvent; settings: 303.15 K; x2 = 0.1666
experimental.readout: solubility (g/100 g solution)
Lab note: record just the number, no unit beside it.

Worked set:
molecule: c1ccc2[nH]c(-c3cscn3)nc2c1 + CC(C)O + O
solubility (g/100 g solution): 0.0796
--
molecule: Cc1[nH]c(=O)c(C#N)cc1-c1ccncc1 + CC(C)O + O
solubility (g/100 g solution): 0.00798
--
molecule: Nc1nccnc1Cl + CC(C)O + O
solubility (g/100 g solution): 0.551
--
molecule: CN1CCN(C2=Nc3cc(Cl)ccc3Nc3ccccc32)CC1 + CC(C)O + O
solubility (g/100 g solution): 0.336
--
molecule: Nc1cccc(S(=O)(=O)c2cccc(N)c2)c1 + CC(C)O + O
solubility (g/100 g solution): 0.657

Task: Form field: reported solubility (g/100 g solution) of c1ccc2[nH]c(-c3cscn3)nc2c1 + CCCO + O
Result: 0.142

* * *

Listed below: solubility (g/100 g solution) values for each entry.
assay: xn = mol fraction of the nth substance listed, in the solute-free solvent; conditions: 303.15 K; x2 = 0.2068
Lab note: record just the number, no unit beside it.

Worked set:
molecule: Nc1cccc(S(=O)(=O)c2cccc(N)c2)c1 + CCO + O
solubility (g/100 g solution): 0.822

molecule: CC(C)OC(=O)C(C)NP(=O)(OCC1OC(n2ccc(=O)[nH]c2=O)C(C)(F)C1O)Oc1ccccc1 (centres undefined) + CCO + O
solubility (g/100 g solution): 17.8

molecule: Cc1[nH]c(=O)c(C#N)cc1-c1ccncc1 + CCO + O
solubility (g/100 g solution): 0.00348

Let us move to another entry and its solubility (g/100 g solution).
Task: Form field: reported solubility (g/100 g solution) of COc1cc2c(cc1OC)-c1cc3ccc(OC)c(OC)c3c[n+]1CC2.[Cl-] + CCO + O
Result: 3.27

* * *

experiment: xn = mol fraction of the nth substance listed, in the solute-free solvent; details: 293.15 K; x2 = 0.3103
Listed below: solubility (g/100 g solution) values for each entry.
Lab note: record just the number, no unit beside it.

molecule: CN1CCN(C2=Nc3cc(Cl)ccc3Nc3ccccc32)CC1 + CC(C)O + O
experimental.readout: solubility (g/100 g solution)
quantitative.readout: 0.659
--
molecule: Nc1cccc(S(=O)(=O)c2cccc(N)c2)c1 + CC(C)O + O
experimental.readout: solubility (g/100 g solution)
quantitative.readout: 0.599
--
molecule: Nc1nccnc1Cl + CC(C)O + O
experimental.readout: solubility (g/100 g solution)
quantitative.readout: 0.621
--
molecule: c1ccc2[nH]c(-c3cscn3)nc2c1 + CC(C)O + O
experimental.readout: solubility (g/100 g solution)
quantitative.readout: 0.127
--
molecule: c1ccc2[nH]c(-c3cscn3)nc2c1 + CCCO + O
experimental.readout: solubility (g/100 g solution)
quantitative.readout: 0.282

Task: Form field: reported solubility (g/100 g solution) of Cc1[nH]c(=O)c(C#N)cc1-c1ccncc1 + CC(C)O + O
Result: 0.0101

* * *

test: xn = mol fraction of the nth substance listed, in the solute-free solvent; settings: 283.15 K; x2 = 0.06974
Listed below: solubility (g/100 g solution) values for each entry.

compound: Nc1cccc(S(=O)(=O)c2cccc(N)c2)c1 + CC(C)O + O
solubility (g/100 g solution): 0.109
//
compound: c1ccc2[nH]c(-c3cscn3)nc2c1 + CCCO + O
solubility (g/100 g solution): 0.0139
//
compound: Cc1[nH]c(=O)c(C#N)cc1-c1ccncc1 + CC(C)O + O
solubility (g/100 g solution): 0.00206

Task: Form field: reported solubility (g/100 g solution) of CN1CCN(C2=Nc3cc(Cl)ccc3Nc3ccccc32)CC1 + CC(C)O + O
Result: 0.029

Task: Moving on to the next compound: c1ccc2[nH]c(-c3cscn3)nc2c1 + CC(C)O + O
Result: 0.00792

Task: Moving on to the next compound: Nc1nccnc1Cl + CC(C)O + O
Result: 0.103

* * *

assay: xn = mol fraction of the nth substance listed, in the solute-free solvent; conditions: 308.15 K; x2 = 0.06974
Response key: YES means solubility (g/100 g solution) >= 0.09; NO means solubility (g/100 g solution) < 0.09.

Examples from the recorded data:
compound: Nc1nccnc1Cl + CC(C)O + O
group.label: YES

compound: Cc1[nH]c(=O)c(C#N)cc1-c1ccncc1 + CC(C)O + O
group.label: NO

compound: c1ccc2[nH]c(-c3cscn3)nc2c1 + CC(C)O + O
group.label: NO

compound: Nc1cccc(S(=O)(=O)c2cccc(N)c2)c1 + CC(C)O + O
group.label: YES

We next turn to a different compound, shown below.
Task: Record c1ccc2[nH]c(-c3cscn3)nc2c1 + CCCO + O ; criterion: solubility (g/100 g solution) no lower than 0.09. Met?
Result: NO

* * *

assay: xn = mol fraction of the nth substance listed, in the solute-free solvent; conditions: 288.15 K; x2 = 0.2
Response key: t means solubility (g/100 g solution) >= 2; f means solubility (g/100 g solution) < 2.

Examples from the recorded data:
compound: S=c1[nH]ncs1 + CCO + O
group.label: t
--
compound: S=c1[nH]ncs1 + CC(C)=O + O
group.label: t

Task: Record S=c1[nH]ncs1 + CCCO + O ; criterion: solubility (g/100 g solution) no lower than 2. Met?
Result: t

Task: Moving on to the next compound: S=c1[nH]ncs1 + CO + O
Result: f

Task: Moving on to the next compound: Cc1ncc(C[n+]2csc(CCO)c2C)c(N)n1.O=[N+]([O-])[O-] + O + CO
Result: f

* * *

test: xn = mol fraction of the nth substance listed, in the solute-free solvent; details: 288.15 K; x2 = 0.5454
experimental.readout: solubility (g/100 g solution)
Lab note: record just the number, no unit beside it.

compound: CN1CCN(C2=Nc3cc(Cl)ccc3Nc3ccccc32)CC1 + CC(C)O + O
quantitative.readout: 1.08
--
compound: Cc1[nH]c(=O)c(C#N)cc1-c1ccncc1 + CC(C)O + O
quantitative.readout: 0.0115
--
compound: Nc1cccc(S(=O)(=O)c2cccc(N)c2)c1 + CC(C)O + O
quantitative.readout: 0.54
--
compound: Nc1nccnc1Cl + CC(C)O + O
quantitative.readout: 0.645

Task: Form field: reported solubility (g/100 g solution) of c1ccc2[nH]c(-c3cscn3)nc2c1 + CC(C)O + O
Result: 0.192

Task: Moving on to the next compound: c1ccc2[nH]c(-c3cscn3)nc2c1 + CCCO + O
Result: 0.423

* * *

assay: xn = mol fraction of the nth substance listed, in the solute-free solvent; conditions: 283.15 K; x2 = 0.4
experimental.readout: solubility (g/100 g solution)
Lab note: record just the number, no unit beside it.

Worked set:
compound: CC(N)C(=O)O (centres undefined) + O + CCCO
experimental.readout: solubility (g/100 g solution)
quantitative.readout: 0.143
--
compound: CC(N)C(=O)O (centres undefined) + O + CCO
experimental.readout: solubility (g/100 g solution)
quantitative.readout: 0.126
--
compound: Cc1ncc(C[n+]2csc(CCO)c2C)c(N)n1.O=[N+]([O-])[O-] + O + CC(C)=O
experimental.readout: solubility (g/100 g solution)
quantitative.readout: 0.198
--
compound: S=c1[nH]ncs1 + CCO + O
experimental.readout: solubility (g/100 g solution)
quantitative.readout: 6.58

Task: Form field: reported solubility (g/100 g solution) of CC(N)C(=O)O (centres undefined) + O + CO
Result: 0.44

Task: Moving on to the next compound: CC(N)C(=O)O (centres undefined) + O + CC(C)O
Result: 0.104

Task: Moving on to the next compound: S=c1[nH]ncs1 + CC(C)=O + O
Result: 17.9

* * *

Listed below: solubility (g/100 g solution) values for each entry.
assay: xn = mol fraction of the nth substance listed, in the solute-free solvent; details: 283.15 K; x2 = 0.08908
Lab note: record just the number, no unit beside it.

Worked set:
compound: Cc1[nH]c(=O)c(C#N)cc1-c1ccncc1 + CCO + O
experimental.readout: solubility (g/100 g solution)
quantitative.readout: 0.00103

compound: Nc1cccc(S(=O)(=O)c2cccc(N)c2)c1 + CCO + O
experimental.readout: solubility (g/100 g solution)
quantitative.readout: 0.129

compound: CC(C)OC(=O)C(C)NP(=O)(OCC1OC(n2ccc(=O)[nH]c2=O)C(C)(F)C1O)Oc1ccccc1 (centres undefined) + CCO + O
experimental.readout: solubility (g/100 g solution)
quantitative.readout: 2.02

Let us move to another entry and its solubility (g/100 g solution).
Task: Form field: reported solubility (g/100 g solution) of COc1cc2c(cc1OC)-c1cc3ccc(OC)c(OC)c3c[n+]1CC2.[Cl-] + CCO + O
Result: 1.26
